target: HER2 (Homo sapiens); assay: Mobility shift assay, kinase inhibition (HER2); assay type: biochemical; settings: read-out: Kinase inhibitory activity IC50 (nM) HER2
Sequence (P04626 23-1255): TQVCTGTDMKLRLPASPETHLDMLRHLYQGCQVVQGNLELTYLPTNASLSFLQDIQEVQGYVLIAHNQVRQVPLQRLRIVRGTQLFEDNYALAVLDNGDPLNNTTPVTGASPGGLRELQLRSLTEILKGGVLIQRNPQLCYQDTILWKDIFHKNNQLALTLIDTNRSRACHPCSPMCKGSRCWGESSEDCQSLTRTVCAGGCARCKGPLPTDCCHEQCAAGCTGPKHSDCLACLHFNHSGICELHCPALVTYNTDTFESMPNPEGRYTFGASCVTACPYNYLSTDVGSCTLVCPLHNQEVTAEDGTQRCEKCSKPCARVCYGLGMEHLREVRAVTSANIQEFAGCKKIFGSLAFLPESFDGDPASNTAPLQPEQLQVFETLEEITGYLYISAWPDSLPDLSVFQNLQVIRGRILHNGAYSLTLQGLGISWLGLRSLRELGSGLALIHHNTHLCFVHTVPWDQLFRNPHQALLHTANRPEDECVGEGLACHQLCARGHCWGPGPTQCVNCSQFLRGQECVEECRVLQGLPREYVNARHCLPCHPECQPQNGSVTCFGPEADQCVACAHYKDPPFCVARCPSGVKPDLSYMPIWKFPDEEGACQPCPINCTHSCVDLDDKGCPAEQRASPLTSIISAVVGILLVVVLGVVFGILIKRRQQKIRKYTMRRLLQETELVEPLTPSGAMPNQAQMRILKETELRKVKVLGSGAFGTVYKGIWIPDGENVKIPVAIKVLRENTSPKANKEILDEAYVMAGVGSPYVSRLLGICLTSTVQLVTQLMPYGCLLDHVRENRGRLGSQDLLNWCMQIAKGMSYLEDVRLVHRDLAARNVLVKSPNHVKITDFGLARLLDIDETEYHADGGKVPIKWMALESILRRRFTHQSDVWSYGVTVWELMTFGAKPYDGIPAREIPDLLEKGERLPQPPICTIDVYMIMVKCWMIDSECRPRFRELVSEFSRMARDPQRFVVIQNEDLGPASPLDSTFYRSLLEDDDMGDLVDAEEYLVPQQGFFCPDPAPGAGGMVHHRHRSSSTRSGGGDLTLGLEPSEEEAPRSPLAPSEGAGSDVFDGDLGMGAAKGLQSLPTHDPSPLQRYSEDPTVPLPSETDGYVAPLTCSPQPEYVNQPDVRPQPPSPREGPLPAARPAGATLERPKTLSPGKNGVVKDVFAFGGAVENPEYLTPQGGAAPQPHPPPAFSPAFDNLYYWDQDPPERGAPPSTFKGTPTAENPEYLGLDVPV
IC50: recorded values
Please give a number only; it is taken to be in nM.

Consider the reported IC50 for these molecules:
> print(dat)
                                   molecule  reportedmetric  readoutnumber
1  COc1cc2ncnc(Nc3ccc(F)c(Cl)c3)c2cc1NC(=O)/C(F)=C\CN(C)C [Compound 2-2]            IC50            369
2  COc1cc2ncnc(Nc3ccc(F)c(Cl)c3)c2cc1NC(=O)/C(F)=C/CN(C)C [Compound 2-1]            IC50             75

Q) Input COc1cc2ncnc(Nc3ccc(OCc4ccccn4)c(Cl)c3)c2cc1NC(=O)/C(F)=C\CN(C)C [Compound 4-2] , output reported IC50.
A) 64

Q) Input COc1cc2ncnc(Nc3ccc(OCc4ccccn4)c(Cl)c3)c2cc1NC(=O)/C(F)=C/CN(C)C [Compound 4-1] , output reported IC50.
A) 62

Q) Input COc1cc2ncnc(Nc3ccc(F)c(Cl)c3)c2cc1NC(=O)C(F)=CCN(C)C (mixture of isomers) [Compound 1] , output reported IC50.
A) 168
